The reported measurements were obtained from patent US9487508B2.

# TESTED TARGET: soluble guanylate cyclase (sGC) (Homo sapiens, UniProt Q02108+Q02153)
# Construct: endogenously expressing soluble guanylate cyclase (sGC); endogenous in cells; host or cells: HEK293
# Sequence (Q02153 1-619): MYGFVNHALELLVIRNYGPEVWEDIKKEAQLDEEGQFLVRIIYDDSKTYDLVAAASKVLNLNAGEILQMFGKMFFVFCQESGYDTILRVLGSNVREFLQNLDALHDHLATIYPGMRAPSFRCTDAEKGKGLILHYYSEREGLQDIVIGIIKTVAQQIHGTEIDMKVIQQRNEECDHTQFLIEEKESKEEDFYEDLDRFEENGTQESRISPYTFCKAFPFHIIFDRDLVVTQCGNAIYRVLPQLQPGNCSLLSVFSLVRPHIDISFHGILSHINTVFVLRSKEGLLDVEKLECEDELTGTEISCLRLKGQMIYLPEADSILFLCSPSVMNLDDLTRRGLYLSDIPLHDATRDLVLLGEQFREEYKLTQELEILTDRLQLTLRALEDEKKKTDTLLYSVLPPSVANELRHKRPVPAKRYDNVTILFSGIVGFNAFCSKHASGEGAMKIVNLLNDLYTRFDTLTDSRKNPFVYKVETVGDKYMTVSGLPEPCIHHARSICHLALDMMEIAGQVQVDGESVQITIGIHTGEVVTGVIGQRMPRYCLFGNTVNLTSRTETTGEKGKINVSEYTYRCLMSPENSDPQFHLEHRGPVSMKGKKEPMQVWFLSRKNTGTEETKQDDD
# Sequence (Q02108 1-690): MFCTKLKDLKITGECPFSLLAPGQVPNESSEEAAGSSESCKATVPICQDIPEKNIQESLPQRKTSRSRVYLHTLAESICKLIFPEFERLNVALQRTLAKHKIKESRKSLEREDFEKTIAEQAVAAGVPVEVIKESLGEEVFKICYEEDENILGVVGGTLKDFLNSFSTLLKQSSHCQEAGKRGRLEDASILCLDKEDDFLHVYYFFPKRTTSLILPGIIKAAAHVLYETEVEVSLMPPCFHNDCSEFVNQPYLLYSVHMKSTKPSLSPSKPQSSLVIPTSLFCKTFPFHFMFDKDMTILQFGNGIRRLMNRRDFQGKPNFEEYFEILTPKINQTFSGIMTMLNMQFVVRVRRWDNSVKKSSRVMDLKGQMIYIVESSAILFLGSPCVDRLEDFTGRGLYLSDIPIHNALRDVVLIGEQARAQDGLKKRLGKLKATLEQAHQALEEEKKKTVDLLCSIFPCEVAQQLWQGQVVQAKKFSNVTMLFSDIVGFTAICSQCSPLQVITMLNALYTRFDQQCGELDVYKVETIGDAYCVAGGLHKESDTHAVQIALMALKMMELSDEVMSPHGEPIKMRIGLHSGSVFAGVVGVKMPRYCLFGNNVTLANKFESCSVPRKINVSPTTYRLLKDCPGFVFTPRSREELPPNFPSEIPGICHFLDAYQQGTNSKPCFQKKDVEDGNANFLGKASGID
# ASSAY NAME: sGC-HEK-cGMP assay with SNP incubation (LC/MS read-out)
# Format: cell-based
# CONDITIONS: top of curve fitted to 100%; 10 μM SNP; read-out: HEK assay EC50-constrained
VALUE KIND: EC50

COMPOUND	VALUE KIND	TEST VALUE
Nc1ccnc(-n2cc(-c3ncco3)c(Cc3ccccc3F)n2)n1 [Compound I-2]	EC50	1 to 5 µM

* * *

Listing of recorded Emax by entry.
# TESTED TARGET: soluble guanylate cyclase (sGC) (Homo sapiens, UniProt Q02108+Q02153)
# Construct: endogenously expressing soluble guanylate cyclase (sGC); endogenous in cells; host or cells: HEK293
# ASSAY NAME: sGC-HEK-cGMP assay with SNP incubation (LC/MS read-out)
# Assay type: cell-based
# CONDITIONS: maximum of full concentration-response curve, top not fitted to 100%; 10 μM SNP; relative to BAY 41-2272 control; read-out: HEK assay Emax-unconstrained (Percent)

STRUCTURE SMILES STRING	Emax
COc1nc(-n2cc(-c3ccon3)c(Cc3ccccc3F)n2)ncc1F	20 to 40%
CC(C)[C@@H](C(=O)O)N(C)c1nc(-n2cc(-c3ccon3)c(Cc3ccccc3F)n2)ncc1F	100 to 120%
Nc1ccnc(-n2cc(-c3ccon3)c(Cc3ccccc3F)n2)n1	80 to 100%
O=c1[nH]c(-n2cc(-c3ccon3)c(Cc3ccccc3F)n2)ncc1F	80 to 100%

* * *

Listing of recorded Emax at 10 µM by entry.
# TESTED TARGET: soluble guanylate cyclase (sGC) (Homo sapiens, UniProt Q02108+Q02153)
# Construct: endogenously expressing soluble guanylate cyclase (sGC); endogenous in cells; host or cells: HEK293
# Sequence (Q02153 1-619): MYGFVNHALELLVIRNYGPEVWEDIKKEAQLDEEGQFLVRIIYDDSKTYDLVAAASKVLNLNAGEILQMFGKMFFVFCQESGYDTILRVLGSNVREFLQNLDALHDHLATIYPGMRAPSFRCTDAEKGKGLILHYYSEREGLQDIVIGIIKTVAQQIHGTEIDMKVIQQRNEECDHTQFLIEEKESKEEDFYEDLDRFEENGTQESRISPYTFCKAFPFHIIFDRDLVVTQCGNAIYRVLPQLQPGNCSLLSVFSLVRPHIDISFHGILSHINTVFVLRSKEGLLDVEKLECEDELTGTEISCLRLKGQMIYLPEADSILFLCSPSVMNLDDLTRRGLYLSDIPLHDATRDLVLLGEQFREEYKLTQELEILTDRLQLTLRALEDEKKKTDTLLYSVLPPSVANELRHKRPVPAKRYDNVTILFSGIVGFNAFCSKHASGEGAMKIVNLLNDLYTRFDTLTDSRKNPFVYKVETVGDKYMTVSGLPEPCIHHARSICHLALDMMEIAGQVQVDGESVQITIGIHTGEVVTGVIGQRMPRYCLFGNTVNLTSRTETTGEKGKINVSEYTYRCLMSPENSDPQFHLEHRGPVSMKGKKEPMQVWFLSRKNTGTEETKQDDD
# Sequence (Q02108 1-690): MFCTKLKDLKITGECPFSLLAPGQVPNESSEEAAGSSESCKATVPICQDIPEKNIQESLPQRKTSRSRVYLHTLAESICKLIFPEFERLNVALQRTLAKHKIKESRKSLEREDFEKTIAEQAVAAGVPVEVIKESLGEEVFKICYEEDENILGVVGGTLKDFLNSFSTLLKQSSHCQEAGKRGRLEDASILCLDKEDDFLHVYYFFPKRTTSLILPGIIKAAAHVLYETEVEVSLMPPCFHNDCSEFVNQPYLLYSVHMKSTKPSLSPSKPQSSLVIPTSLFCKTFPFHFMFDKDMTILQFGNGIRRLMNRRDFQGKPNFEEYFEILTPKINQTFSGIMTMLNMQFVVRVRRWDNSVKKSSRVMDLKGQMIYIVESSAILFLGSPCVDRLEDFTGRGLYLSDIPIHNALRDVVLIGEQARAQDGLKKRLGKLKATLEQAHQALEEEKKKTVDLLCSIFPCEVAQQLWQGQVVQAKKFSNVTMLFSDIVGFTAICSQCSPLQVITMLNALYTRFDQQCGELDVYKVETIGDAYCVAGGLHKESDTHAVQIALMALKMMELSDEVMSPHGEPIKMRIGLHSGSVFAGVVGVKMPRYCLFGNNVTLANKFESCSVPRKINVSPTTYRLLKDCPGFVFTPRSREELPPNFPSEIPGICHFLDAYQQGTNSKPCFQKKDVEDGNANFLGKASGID
# ASSAY NAME: sGC-HEK-cGMP assay with SNP incubation (LC/MS read-out)
# Type: cell-based
# CONDITIONS: 10 μM compound, 10 μM SNP; 100% = BAY 41-2272 at 10 μM with 100 μM SNP; read-out: HEK assay (Percent Emax at 10 μM)

STRUCTURE SMILES STRING	Emax at 10 µM
Nc1ccnc(-n2cc(-c3ccon3)c(Cc3ccccc3F)n2)n1	80 to 100%
CC(C)[C@@H](C(=O)O)N(C)c1nc(-n2cc(-c3ccon3)c(Cc3ccccc3F)n2)ncc1F	100 to 120%
Nc1nc(-n2cc(-c3ncco3)c(Cc3ccccc3F)n2)ncc1F	60 to 80%
Nc1ccnc(-n2cc(-c3ncco3)c(Cc3ccccc3F)n2)n1	80 to 100%
COc1nc(-n2cc(-c3ccon3)c(Cc3ccccc3F)n2)ncc1F	20 to 40%
O=c1[nH]c(-n2cc(-c3ccon3)c(Cc3ccccc3F)n2)ncc1F	80 to 100%

* * *

# TESTED TARGET: soluble guanylate cyclase (sGC) (Homo sapiens, UniProt Q02108+Q02153)
# Construct: endogenously expressing soluble guanylate cyclase (sGC); endogenous in cells; host or cells: HEK293
# ASSAY NAME: sGC-HEK-cGMP assay with SNP incubation (LC/MS read-out)
# Format: cell-based
# CONDITIONS: 1 μM compound, 10 μM SNP; 100% = BAY 41-2272 at 10 μM with 100 μM SNP; read-out: HEK assay (Percent Emax at 1 μM)
# Protocol: (Assay Run with SNP Incubation) Human embryonic kidney cells (HEK293), endogenously expressing soluble guanylate cyclase (sGC), were used to evaluate the activity of test compounds. Compounds stimulating the sGC receptor should cause an increase in the intracellular concentration of cGMP. […] were then added to the assay mixture (2 μL each) and the resulting mixture incubated at 37° C. for 10 minutes. […] EC50 values were calculated from concentration-response curves generated with GraphPad Prism Software. […]
VALUE KIND: Emax at 1 µM

STRUCTURE SMILES STRING	TESTED TARGET	TEST VALUE
COc1nc(-n2cc(-c3ccon3)c(Cc3ccccc3F)n2)ncc1F	soluble guanylate cyclase (sGC) (Homo sapiens, UniProt Q02108+Q02153)	20 to 40%
CC(C)[C@@H](C(=O)O)N(C)c1nc(-n2cc(-c3ccon3)c(Cc3ccccc3F)n2)ncc1F	soluble guanylate cyclase (sGC) (Homo sapiens, UniProt Q02108+Q02153)	80 to 100%
Nc1ccnc(-n2cc(-c3ccon3)c(Cc3ccccc3F)n2)n1	soluble guanylate cyclase (sGC) (Homo sapiens, UniProt Q02108+Q02153)	60 to 80%
O=c1[nH]c(-n2cc(-c3ccon3)c(Cc3ccccc3F)n2)ncc1F	soluble guanylate cyclase (sGC) (Homo sapiens, UniProt Q02108+Q02153)	60 to 80%
